Target: human recombinant MC4R (CHO-K1/Gα15 stable cell line, GenScript) (human, UniProt P32245 1-332)
Sequence (P32245 whole entry): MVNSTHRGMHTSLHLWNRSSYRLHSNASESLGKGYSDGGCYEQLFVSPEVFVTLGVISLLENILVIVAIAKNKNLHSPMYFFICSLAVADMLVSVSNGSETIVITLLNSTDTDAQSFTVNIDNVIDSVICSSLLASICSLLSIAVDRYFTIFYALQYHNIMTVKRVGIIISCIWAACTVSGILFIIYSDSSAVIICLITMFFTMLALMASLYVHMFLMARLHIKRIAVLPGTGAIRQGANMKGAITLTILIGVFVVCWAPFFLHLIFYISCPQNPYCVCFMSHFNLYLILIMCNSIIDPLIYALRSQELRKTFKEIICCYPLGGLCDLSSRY
Test: cell-based or functional assay
Positions of bridges follow the written chain, without caps; N, C: chain ends. Non-standard residues stand in square brackets, D forms with d. *: point of attachment. Benzoyl(3,5-(OH)2) = O=C(c1cc(O)cc(O)c1)*; Lys(N3) = [N-]=[N+]=NCCCC[C@H](N)C(=O)O; dPhe(4-F) = N[C@H](Cc1ccc(F)cc1)C(=O)O; Nle = CCCC[C@H](N)C(=O)O; Pra = C#CC[C@H](N)C(=O)O
recorded endpoint: EC50(nM)-MC4R

[a] {Benzoyl(3,5-(OH)2)}-[Nle][Lys(N3)]H[dF]RW[Pra]-NH2 (triazole 2-7; not fully specified; printed as HyBA-Nle-[Lys(N3)-His-DPhe-Arg-Trp-Pra]-NH2) [KR-073]
[b] {Benzoyl(3,5-(OH)2)}-[Nle][Lys(N3)]H[dPhe(4-F)]RW[Pra]-NH2 (triazole 2-7; not fully specified; printed as HyBA-Nle-[Lys(N3)-His-Dphe(4-F)-Arg-Trp-Pra]-NH2) [KR-072]
[Q] EC50(nM)-MC4R comparison. Which is larger, a or b ? Kindly state the label of the option you pick.
[A] b
